Assay: microPET imaging of U87MG tumor xenografts in mice
Assay type: in vivo, nude mice
Conditions: nude, mouse, liver, iv, 20 mg/kg, total radioactivity
Assay Endpoint: tissue uptake at 0.5 h

INSERT INTO results (compound, result) VALUES
  ('N=C(N)NCCC[C@@H]1NC(=O)[C@H](CCCCNC(=O)CC[C@H](NC(=O)COCCOCCOCCNC(=O)[C@@H]2CSC(c3nc4ccc(OCCF)cc4s3)=N2)C(=O)NCCCC[C@@H]2NC(=O)[C@@H](Cc3ccc(O)cc3)NC(=O)[C@H](CC(=O)O)NC(=O)CNC(=O)[C@H](CCCNC(=N)N)NC2=O)NC(=O)[C@@H](Cc2ccc(O)cc2)NC(=O)[C@H](CC(=O)O)NC(=O)CNC1=O [[^18F]CBTRGD2]', '1.34 %ID/g');

###

Test: microPET imaging of U87MG tumor xenografts in mice
Assay type: in vivo, nude mice
Conditions: nude, mouse, tumor, iv, 20 mg/kg, total radioactivity
Assay Endpoint: tissue uptake at 0.5 h (%ID/g)

INSERT INTO results (compound, numeric_value) VALUES
  ('N=C(N)NCCC[C@@H]1NC(=O)[C@H](CCCCNC(=O)CC[C@H](NC(=O)COCCOCCOCCNC(=O)[C@@H]2CSC(c3nc4ccc(OCCF)cc4s3)=N2)C(=O)NCCCC[C@@H]2NC(=O)[C@@H](Cc3ccc(O)cc3)NC(=O)[C@H](CC(=O)O)NC(=O)CNC(=O)[C@H](CCCNC(=N)N)NC2=O)NC(=O)[C@@H](Cc2ccc(O)cc2)NC(=O)[C@H](CC(=O)O)NC(=O)CNC1=O [[^18F]CBTRGD2]', 1.62);

###

Test: microPET imaging of U87MG tumor xenografts in mice
Type: in vivo, nude mice
Details: nude, mouse, liver, iv, total radioactivity
Assay Endpoint: tissue uptake at 0.5 h (%ID/g)

INSERT INTO measurements (compound, assay_endpoint, units_symbol, numeric_value) VALUES
  ('N=C(N)NCCC[C@@H]1NC(=O)[C@H](CCCCNC(=O)CC[C@H](NC(=O)COCCOCCOCCNC(=O)[C@@H]2CSC(c3nc4ccc(OCCF)cc4s3)=N2)C(=O)NCCCC[C@@H]2NC(=O)[C@@H](Cc3ccc(O)cc3)NC(=O)[C@H](CC(=O)O)NC(=O)CNC(=O)[C@H](CCCNC(=N)N)NC2=O)NC(=O)[C@@H](Cc2ccc(O)cc2)NC(=O)[C@H](CC(=O)O)NC(=O)CNC1=O [[^18F]CBTRGD2]', 'tissue uptake at 0.5 h', '%ID/g', 3.64);
